Values were extracted from patent USRE47150.

tested-on: T1, human tissue factor pathway inhibitor (TFPI) (human, UniProt P10646 29-304, limits assumed)
T1 construct: bought; also called hTFPI; human TFPI
T1 sequence (looked up): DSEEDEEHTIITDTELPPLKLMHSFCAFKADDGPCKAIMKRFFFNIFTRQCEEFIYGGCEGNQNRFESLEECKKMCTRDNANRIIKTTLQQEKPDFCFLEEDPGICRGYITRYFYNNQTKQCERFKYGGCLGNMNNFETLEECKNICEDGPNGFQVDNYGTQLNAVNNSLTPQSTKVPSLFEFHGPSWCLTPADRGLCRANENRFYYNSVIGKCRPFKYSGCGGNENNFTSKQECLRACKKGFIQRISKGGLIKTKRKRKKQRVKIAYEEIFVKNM
assay-text: SPR, TFPI immobilized
value-type: pKd
The quantity pKd is defined as the negative base-10 logarithm of the molar concentration.

The binder identified as gB9.7 (4B7 HC Q1E+N32D+G44S+K55Y+D62R+Y112D/LC S32R+N35I) (Fab, V domains shown) VH: EVQLQQSGPGLVKPSQTLSLTCAISGDSVSSDSAAWSWIRQSPSRGLEWLGIIYYRSKWYNRYAVSVKSRITINPDTSKNQFSLQLNSVTPEDTAVYYCARWHSDKHWGFDDWGQGTLVTVSS VL: DIVMTQSPLSLPVTPGEPASISCRSSQSLVFRDGITYLNWYLQKPGQSPQLLIYKGSNRASGVPDRFSGSGSGTDFTLKISRVEAEDVGVYYCQQYDSYPLTFGQGTKVEIKR registered its pKd at 10.99

The binder identified as B9.7 (4B7 HC N32D+D62R+Y112D/LC S32R+N35I) (Fab, V domains shown) VH: QVQLQQSGPGLVKPSQTLSLTCAISGDSVSSDSAAWSWIRQSPGRGLEWLGIIYKRSKWYNRYAVSVKSRITINPDTSKNQFSLQLNSVTPEDTAVYYCARWHSDKHWGFDDWGQGTLVTVSS VL: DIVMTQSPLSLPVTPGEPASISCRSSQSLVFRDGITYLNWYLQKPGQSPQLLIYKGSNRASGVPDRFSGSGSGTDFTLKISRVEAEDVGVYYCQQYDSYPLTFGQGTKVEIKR registered its pKd at 11.06

The binder identified as B27.1 (4B7 HC N32D+D62R+Y112D/LC N35T+D97T) (Fab, V domains shown) VH: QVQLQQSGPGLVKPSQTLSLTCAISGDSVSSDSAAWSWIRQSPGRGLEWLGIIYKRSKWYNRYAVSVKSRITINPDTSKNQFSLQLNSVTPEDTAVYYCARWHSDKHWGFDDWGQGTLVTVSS VL: DIVMTQSPLSLPVTPGEPASISCRSSQSLVFSDGTTYLNWYLQKPGQSPQLLIYKGSNRASGVPDRFSGSGSGTDFTLKISRVEAEDVGVYYCQQYTSYPLTFGQGTKVEIKR registered its pKd at 10.90
